B1: tRNA (parent)
chain: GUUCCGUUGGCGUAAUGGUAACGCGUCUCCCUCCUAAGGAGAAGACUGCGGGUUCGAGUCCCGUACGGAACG

Variants of: B1
Experiment: yeast fitness, log relative to wild type (ln ratio); higher = fitter; tRNA-Arg(CCU), competitive growth, 37 C, 1 M NaCl
Could you label it true (1) if measured yeast fitness (ln) is -0.2 or higher, and false (0) otherwise?

Solved entries:
G1A G6U C27U A43C C66U A70U = false (0)
G1A G6A A43C A70U C71U = false (0)
G6U C27U C66U A69G A70G C71U = false (0)

Reported yeast fitness (ln) at or above -0.2? G1A U2C G6U C27U C46U A70U
true (1)

Identify whether the reported yeast fitness (ln) of the following variant is -0.2 or greater: G6A C46U C66A A69G A70G
true (1)

Form field: yeast fitness (ln) at least -0.2? Entry: U2C C27U C66U A69G C71U
false (0)

# bool: yeast fitness (ln) of U2G G6U C27U A43C C46U A70U C71U >= -0.2
false (0)

Can U2G C27U C46U A70U be said to have yeast fitness (ln) at or above -0.2?
true (1)
